# pKd values compiled below
# system-tested: T1, GmPOPB-S577A (Galerina marginata, UniProt H2E7Q8, S577A)
# T1 sequence: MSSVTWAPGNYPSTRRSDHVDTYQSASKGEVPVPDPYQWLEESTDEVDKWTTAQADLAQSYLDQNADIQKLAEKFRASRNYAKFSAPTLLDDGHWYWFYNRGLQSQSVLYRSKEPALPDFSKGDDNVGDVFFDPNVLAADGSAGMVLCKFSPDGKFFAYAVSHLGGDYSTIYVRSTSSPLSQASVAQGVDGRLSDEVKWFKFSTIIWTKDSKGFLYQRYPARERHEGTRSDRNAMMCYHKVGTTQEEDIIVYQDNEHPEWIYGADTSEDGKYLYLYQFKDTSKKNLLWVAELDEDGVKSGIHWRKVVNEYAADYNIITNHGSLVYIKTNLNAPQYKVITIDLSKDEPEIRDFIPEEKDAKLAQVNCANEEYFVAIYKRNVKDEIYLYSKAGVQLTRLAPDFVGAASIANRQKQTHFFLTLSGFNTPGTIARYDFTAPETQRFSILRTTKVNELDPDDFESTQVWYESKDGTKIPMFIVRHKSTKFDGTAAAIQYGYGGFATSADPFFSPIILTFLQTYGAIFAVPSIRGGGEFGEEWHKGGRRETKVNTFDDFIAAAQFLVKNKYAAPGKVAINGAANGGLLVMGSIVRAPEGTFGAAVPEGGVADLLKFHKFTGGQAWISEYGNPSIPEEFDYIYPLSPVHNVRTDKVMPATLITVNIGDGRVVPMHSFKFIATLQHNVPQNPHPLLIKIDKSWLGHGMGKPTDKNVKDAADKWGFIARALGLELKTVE
# experiment-description: ITC
# assay-context: both partners purified
pKd: −log10 of the molar value.
observable: pKd

• MFDTNATRLPIWGIGCNPWTAEHVDQTLASGNDIC (also called 35mer peptide) [35mer substrate (amatoxin peptide precursor, full-length substrate)] = 6.92
• TLASGNDIC [truncated recognition sequence TLASGNDIC (9 residues)] = 3.92
• VDQTLASGNDIC [truncated recognition sequence VDQTLASGNDIC (12 residues)] = 5.30
